# experiment-notes: Phase 1 single dose study: pharmacokinetics of ertugliflozin in renal impairment
# Format: in vivo, human
# settings: human, in vivo, po, 15 mg, T2DM Mild RI (eGFR 60-89 mL/min), n = 8; single 15 mg oral dose, fasted; geometric mean; read-out: AUC0-inf
endpoint-name: AUC(0-inf) (ng·h/mL)
# unit: ng·h/mL | format: bare number

Query: Request the reported AUC(0-inf) associated with CCOc1ccc(Cc2cc([C@]34OC[C@](CO)(O3)[C@@H](O)[C@H](O)[C@H]4O)ccc2Cl)cc1
Reply: 1910

====

# experiment-notes: Phase 1 single dose study: pharmacokinetics of ertugliflozin in renal impairment
# Format: in vivo, human
# settings: human, in vivo, po, 15 mg, T2DM Moderate RI (eGFR 30-59 mL/min), n = 8; single 15 mg oral dose, fasted; geometric mean; read-out: AUC0-inf
# Description: Results of a Phase I, Single Dose Study to Study the Effect of Renal Impairment on the Pharmacokinetics and Pharmacodynamics of Ertugliflozin in Subjects with Type 2 Diabetes Mellitus (T2DM) Ertugliflozin inhibits renal glucose reabsorption resulting in urinary glucose excretion, thereby reducing plasma glucose and HbA1c. The glycemic efficacy of SGLT2 inhibitors depends on the amount of glucose filtered through the kidney and the kidney is potentially a site of ertugliflozin metabolism. […]
endpoint-name: AUC(0-inf) (ng·h/mL)
# unit: ng·h/mL | format: bare number

Query: Request the reported AUC(0-inf) associated with CCOc1ccc(Cc2cc([C@]34OC[C@](CO)(O3)[C@@H](O)[C@H](O)[C@H]4O)ccc2Cl)cc1
Reply: 2080
